Here, each record is paired with measured IC50 data.
# System: SNB-19
# assay text: NCI-60 cell line panel: SNB-19
# Assay type: cell-based
# measurement conditions: Homo sapiens, CNS Cancer
recorded endpoint: IC50 (µM)

> print(dat)
                                   compound  result.number
1  CNC(=O)c1cc(-c2ccc(NC(=O)Nc3ccc(N4CCN(C)CC4)c(C(F)(F)F)c3)cc2)nc2cccnc12 [Compound 13b]           16.8
2  CCN1CCN(c2ccc(NC(=O)Nc3ccc(-c4cc(C(=O)NC)c5ncccc5n4)cc3)cc2C(F)(F)F)CC1 [Compound 13c]           2.97
3  CCN1CCN(c2ccc(NC(=O)Nc3ccc(-c4cc(C(=O)NC(C)C)c5ncccc5n4)cc3)cc2C(F)(F)F)CC1 [Compound 13f]           4.24
4  CC(C)NC(=O)c1cc(-c2ccc(NC(=O)Nc3ccc(N4CCN(C)CC4)c(C(F)(F)F)c3)cc2)nc2cccnc12 [Compound 13e]           0.73
